Dear all, this message contains pKi results, target or system Carbonic anhydrase 2 (Homo sapiens, UniProt P00918).
Answers are plain numbers, as −log10 of the molar value.

// below: answered molecules
# query: pKi of entry NS(=O)(=O)Nc1ccc(NC(=O)NCCc2ccccc2)cc1
6.77

// repeat for NS(=O)(=O)Nc1ccc(NC(=O)Nc2cccc([N+](=O)[O-])c2)cc1 and report
6.37

// repeat for NS(=O)(=O)Nc1ccc(NC(=O)NCc2ccccc2)cc1 and report
6.87

// repeat for NS(=O)(=O)Nc1ccc(NC(=O)Nc2ccc(Cl)cc2)cc1 and report
6.47

// repeat for CCCCOc1ccc(NC(=O)Nc2ccc(NS(N)(=O)=O)cc2)cc1 and report
6.47

// repeat for COc1ccc(NC(=O)Nc2ccc(NS(N)(=O)=O)cc2)c(C)c1 and report
6.47

// switching to the query molecule
# query: pKi of entry CC(NC(=O)Nc1ccc(NS(N)(=O)=O)cc1)c1cccc2ccccc12 (configuration not stated)
6.37
